# System: HCV type 1b replicon (Huh-7 luc/neo cells)
# Test method notes: HCV replicon assay, stable transfection (Huh-Luc, luciferase)
# Format: cell-based
# Condition label: Hepatitis C virus, Huh-7, 72 h, three days incubation, average of all tests
# Experimental: The compounds of formula (I) were examined for inhibitory activity in the HCV replicon. […] The replicon cells were plated in 384 well plates in the presence of the test and control compounds which were added in various concentrations. Following an incubation of three days, HCV replication was measured by assaying luciferase activity (using standard luciferase assay substrates and reagents and a Perkin Elmer ViewLux™ ultraHTS microplate imager). […]
pEC50 for assorted compounds
Here pEC50 is given on a logarithmic scale as minus log10 of the concentration in mol/L.

Answered cases to consult:
Compound	System	Endpoint	Data value
CC[C@H](C)[C@H](NC(=O)OC)C(=O)N1CCC[C@H]1c1ncc(-c2ccc3cc(-c4ccc5nc([C@@H]6CCCN6C(=O)[C@@H](NC(=O)OC)[C@@H](C)CC)[nH]c5c4)ccc3c2)[nH]1	HCV type 1b replicon (Huh-7 luc/neo cells)	pEC50	11.52
COC(=O)N[C@H](C(=O)N1CCC[C@H]1c1ncc(-c2ccc(-c3ccc4nc([C@@H]5CCCN5C(=O)[C@@H](NC(=O)OC)C(C)C)[nH]c4c3)cc2)[nH]1)C(C)C	HCV type 1b replicon (Huh-7 luc/neo cells)	pEC50	10.24
COC(=O)N[C@H](C(=O)N1CCC[C@H]1c1ncc(-c2ccc3cc(-c4ccc5nc([C@@H]6CCCN6C(=O)[C@@H](NC(=O)OC)C6CC6)[nH]c5c4)ccc3c2)[nH]1)C1CC1	HCV type 1b replicon (Huh-7 luc/neo cells)	pEC50	10.41
CC[C@H](C)[C@H](NC(=O)OC)C(=O)N1CCC[C@H]1c1nc2cc(-c3ccc4cc(-c5cnc([C@@H]6CCCN6C(=O)[C@@H](NC(=O)OC)[C@@H](C)OC)[nH]5)ccc4c3)ccc2[nH]1	HCV type 1b replicon (Huh-7 luc/neo cells)	pEC50	11.52
COC(=O)N[C@H](C(=O)N1CCC[C@H]1c1ncc(-c2ccc3cc(-c4ccc5nc([C@@H]6CCCN6C(=O)[C@@H](NC(=O)OC)C6CCCC6)[nH]c5c4)ccc3c2)[nH]1)C1CCCC1	HCV type 1b replicon (Huh-7 luc/neo cells)	pEC50	11.52
COC(=O)NC(C(=O)N1CCC[C@H]1c1ncc(-c2ccc3cc(-c4ccc5nc([C@@H]6CCCN6C(=O)C(NC(=O)OC)c6ccccc6)[nH]c5c4)ccc3c2)[nH]1)c1ccccc1 (mixture of isomers)	HCV type 1b replicon (Huh-7 luc/neo cells)	pEC50	11.40
CC[C@H](C)[C@H](NC(=O)OC)C(=O)N1CCC[C@H]1c1ncc(-c2ccc3cc(-c4ccc5[nH]c([C@@H]6CCCN6C(=O)[C@@H](NC(=O)OC)C(C)C)nc5c4)ccc3c2)[nH]1	HCV type 1b replicon (Huh-7 luc/neo cells)	pEC50	11.52
COC(=O)N[C@H](C(=O)N1CCC[C@H]1c1ncc(-c2ccc(-c3ccc4nc([C@@H]5CCCN5C(=O)[C@@H](NC(=O)OC)[C@@H](C)OC)[nH]c4c3)cc2)[nH]1)[C@@H](C)OC	HCV type 1b replicon (Huh-7 luc/neo cells)	pEC50	9.27

### Prompt # input compound: COC(=O)N[C@@H](CC(C)C)C(=O)N1CCC[C@H]1c1ncc(-c2ccc3cc(-c4ccc5nc([C@@H]6CCCN6C(=O)[C@H](CC(C)C)NC(=O)OC)[nH]c5c4)ccc3c2)[nH]1 ; wanted: its pEC50
### Response 11.30

### Prompt Thanks! And COC(=O)N[C@H](C(=O)N1CCC[C@H]1c1ncc(-c2ccc3cc(-c4ccc5nc([C@@H]6CCCN6C(=O)[C@@H](NC(=O)OC)C(C)C)[nH]c5c4)ccc3c2)[nH]1)C(C)C ?
### Response 11.15

### Prompt Thanks! And CC[C@H](C)[C@H](NC(=O)OC)C(=O)N1CCC[C@@H]1c1ncc(-c2ccc3cc(-c4ccc5[nH]c([C@@H]6CCCN6C(=O)[C@@H](NC(=O)OC)[C@@H](C)OC)nc5c4)ccc3c2)[nH]1 ?
### Response 8.66

### Prompt Thanks! And COC(=O)N[C@H](C(=O)N1CCC[C@H]1c1ncc(-c2ccc3cc(-c4ccc5nc([C@@H]6CCCN6C(=O)[C@@H](NC(=O)OC)[C@@H](C)O)[nH]c5c4)ccc3c2)[nH]1)[C@@H](C)O ?
### Response 9.88

### Prompt Thanks! And CC[C@H](C)[C@H](NC(=O)OC)C(=O)N1CCC[C@H]1c1nc2cc(-c3ccc4cc(-c5cnc([C@H]6CCCN6C(=O)[C@@H](NC(=O)OC)[C@@H](C)OC)[nH]5)ccc4c3)ccc2[nH]1 ?
### Response 8.64

// provenance: patent US9427428B2
